tested-system: proteinase K (UniProt P06873 106-384)
Sequence (P06873 106-384 limits assumed): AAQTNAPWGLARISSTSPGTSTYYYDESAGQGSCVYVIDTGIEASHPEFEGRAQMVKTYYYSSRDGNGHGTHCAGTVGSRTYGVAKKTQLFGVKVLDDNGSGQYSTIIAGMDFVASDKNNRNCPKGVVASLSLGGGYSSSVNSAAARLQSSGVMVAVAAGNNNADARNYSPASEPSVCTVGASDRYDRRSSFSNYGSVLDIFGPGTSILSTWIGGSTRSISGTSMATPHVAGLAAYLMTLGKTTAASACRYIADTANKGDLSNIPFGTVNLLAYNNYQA
test-name: computed, not measured: CDOCKER docking on PDB 3PRK, MM-PBSA rescoring, average of three poses
The star is where a group is joined. MeOSuc = COC(=O)CCC(=O)*; CH2Cl = ClC*
observed-property: ΔΔGBind (total binding free energy, calculated) (kcal/mol)

binder	measure-unit	numeric-result
AAAPF (HELM PEPTIDE1{[COC(=O)CCC(=O)[*:2]].A.A.A.P.F.[ClC[*:1]]}$$$$V2.0; SMILES COC(=O)CCC(=O)N[C@@H](C)C(=O)N[C@@H](C)C(=O)N[C@@H](C)C(=O)N1CCC[C@H]1C(=O)N[C@@H](Cc1ccccc1)C(=O)CCl) [MeOSuc-AlaAlaAlaProPhe-CH2Cl]	kcal/mol	9.95
AAAPL (HELM PEPTIDE1{[COC(=O)CCC(=O)[*:2]].A.A.A.P.L.[ClC[*:1]]}$$$$V2.0; SMILES COC(=O)CCC(=O)N[C@@H](C)C(=O)N[C@@H](C)C(=O)N[C@@H](C)C(=O)N1CCC[C@H]1C(=O)N[C@@H](CC(C)C)C(=O)CCl, also called MeOSuc-AAAPL-CH2Cl; A3PL) [MeOSuc-AlaAlaAlaProLeu-CH2Cl]	kcal/mol	-30.9
MeOSuc-AAPV-CH2Cl (also called MeOSuc-AAPV-CH2Cl; MSVCK) [methoxysuccinyl-AlaAlaProVal-chloromethyl ketone]	kcal/mol	-6.63
